System: Bacillus subtilis
Protocol: Antibacterial activity against penicillin-susceptible Bacillus subtilis ATCC 9372 incubated for 24 hrs by tube-dilution method
Assay type: functional
Condition Notes: ATCC 9372, 24 h
Measurement Name: MIC (µg/mL)
# value in µg/mL; strip the unit string

Example compounds with recorded MIC:
[[record]]
test_smiles = "COc1cccc2c3ccccc3c[n+](C)c12.[Cl-]"
quantity_unit = "µg/mL"
recorded_measurement = 8

[[record]]
test_smiles = "CC(C)c1cccc2c3ccccc3c[n+](C)c12.[Cl-]"
quantity_unit = "µg/mL"
recorded_measurement = 4

[[record]]
test_smiles = "C[n+]1cc2ccccc2c2cc(F)ccc21.[Cl-]"
quantity_unit = "µg/mL"
recorded_measurement = 16

[[record]]
test_smiles = "COc1cc(OC)c2c(c1)c1ccccc1c[n+]2C.[Cl-]"
quantity_unit = "µg/mL"
recorded_measurement = 4

[[record]]
test_smiles = "C[n+]1cc2ccccc2c2ccccc21.[Cl-]"
quantity_unit = "µg/mL"
recorded_measurement = 16

[[record]]
test_smiles = "COc1ccc2c(c1)c1ccccc1c[n+]2C.[Cl-]"
quantity_unit = "µg/mL"
recorded_measurement = 8

[[record]]
test_smiles = "Cc1cccc2c3ccccc3c[n+](C)c12.[Cl-]"
quantity_unit = "µg/mL"
recorded_measurement = 4

[[record]]
test_smiles = "C[n+]1cc2ccccc2c2cc(C(C)(C)C)ccc21.[Cl-]"
quantity_unit = "µg/mL"
recorded_measurement = 8


Query: Please look up its MIC: `C[n+]1cc2c3c(ccc2c2ccc4cc5c(cc4c21)OCO5)OCO3`
Reply: 8

---

Test system: Pseudomonas aeruginosa
Protocol: Inhibition of FtsZ in penicillin-susceptible Pseudomonas aeruginosa ATCC 27853 assessed as lowest drug concentration causing inhibition of cell division incubated for 5 hrs by phase-contrast light microscopy
Measurement Name: MIC (µg/mL)
# value in µg/mL; strip the unit string

[[record]]
test_smiles = "C[n+]1cc2ccccc2c2ccccc21.[Cl-]"
measurement_name = "MIC"
recorded_measurement = 128

[[record]]
test_smiles = "COc1cc(OC)c2c(c1)c1ccccc1c[n+]2C.[Cl-]"
measurement_name = "MIC"
recorded_measurement = 128


Let's switch to this molecule now.
Query: Please look up its MIC: `C[n+]1cc2ccccc2c2cc(F)ccc21.[Cl-]`
Reply: 128

---

System: Staphylococcus aureus
Protocol: Inhibition of FtsZ in penicillin-susceptible Staphylococcus aureus ATCC 25923 assessed as lowest drug concentration causing inhibition of cell division incubated for 5 hrs by phase-contrast light microscopy
Mark criterion met only for MIC values smaller than 30 µg/mL; exact matches and larger values are criterion not met.

Please review the entries below; each comes with its answer.
[[record]]
test_smiles = "COc1ccc2c(c1)c1ccccc1c[n+]2C.[Cl-]"
category_label = "criterion not met"

[[record]]
test_smiles = "Cc1cc(C)c2c(c1)c1ccccc1c[n+]2C.[Cl-]"
category_label = "criterion not met"

[[record]]
test_smiles = "CC(C)c1cccc2c3ccccc3c[n+](C)c12.[Cl-]"
category_label = "criterion met"

[[record]]
test_smiles = "C[n+]1cc2ccccc2c2cc(Cl)ccc21.[Cl-]"
category_label = "criterion not met"

[[record]]
test_smiles = "C[n+]1cc2ccccc2c2cccc(OC(F)(F)F)c21.[Cl-]"
category_label = "criterion met"

[[record]]
test_smiles = "C[n+]1cc2ccccc2c2cc(C(C)(C)C)ccc21.[Cl-]"
category_label = "criterion not met"

[[record]]
test_smiles = "Cc1ccc2c(c1)c1ccccc1c[n+]2C.[Cl-]"
category_label = "criterion not met"

[[record]]
test_smiles = "COc1cc(OC)c2c(c1)c1ccccc1c[n+]2C.[Cl-]"
category_label = "criterion not met"


Query: Here's an entry: `C[n+]1cc2ccccc2c2cc(C(F)(F)F)ccc21.[Cl-]` . Is its MIC below 30 µg/mL?
Reply: criterion not met

Query: Here's an entry: `CSc1cccc2c3ccccc3c[n+](C)c12.[Cl-]` . Is its MIC below 30 µg/mL?
Reply: criterion met

Query: Here's an entry: `C[n+]1cc2ccccc2c2cc(F)ccc21.[Cl-]` . Is its MIC below 30 µg/mL?
Reply: criterion not met

Query: Here's an entry: `C[n+]1cc2c3c(ccc2c2ccc4cc5c(cc4c21)OCO5)OCO3` . Is its MIC below 30 µg/mL?
Reply: criterion met
